- test.method.notes: in vitro
- protocol.conditions: PAMPA, pH 7.4
quantity.measured: Papp at 18 h, 25 ug/ml (nm/s)
All answers are understood in nm/s, so give the number only.

The reported value for COc1ccc(CCN2CCC(Nc3nc4ccccc4n3Cc3ccc(F)cc3)CC2)cc1 in terms of Papp at 18 h, 25 ug/ml is 110

====

The reader will find IC50 measurements below, all made with Amine oxidase [flavin-containing] B (Homo sapiens, UniProt P27338).
Sequence (P27338 whole entry): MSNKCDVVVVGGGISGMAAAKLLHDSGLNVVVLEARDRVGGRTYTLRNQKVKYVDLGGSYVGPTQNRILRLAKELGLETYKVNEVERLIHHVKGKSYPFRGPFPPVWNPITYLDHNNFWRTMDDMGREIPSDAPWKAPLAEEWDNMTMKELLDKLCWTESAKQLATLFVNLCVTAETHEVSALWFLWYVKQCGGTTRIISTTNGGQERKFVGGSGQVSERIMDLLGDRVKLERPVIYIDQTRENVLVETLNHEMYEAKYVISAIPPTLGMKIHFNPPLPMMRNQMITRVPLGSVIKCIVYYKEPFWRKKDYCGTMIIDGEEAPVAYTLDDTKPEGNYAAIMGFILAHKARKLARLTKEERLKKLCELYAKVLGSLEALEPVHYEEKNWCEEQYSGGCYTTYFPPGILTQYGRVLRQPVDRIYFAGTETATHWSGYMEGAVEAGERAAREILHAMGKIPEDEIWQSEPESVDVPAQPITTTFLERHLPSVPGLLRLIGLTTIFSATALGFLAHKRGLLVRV

The reported value for C#CCN(CC#N)CCc1cn(-c2cc(NC(=S)NCC)ncn2)cn1 in terms of IC50 is > 50 µM

The reported value for C#CCN(CC#N)Cc1cn(-c2cc(NC(=S)NCC)ncn2)cn1 in terms of IC50 is > 50 µM

The reported value for C#CCNCc1cn(-c2cc(NC(=S)NCC)ncn2)cn1 in terms of IC50 is 5.24 µM

The reported value for C#CCN(CC#C)Cc1cn(-c2cc(NC(=S)NCC)ncn2)cn1 in terms of IC50 is > 50 µM

The reported value for C#CCN(C)CCc1cn(-c2cc(NC(=S)NCC)ncn2)cn1 in terms of IC50 is 12.4 µM

The reported value for C#CCN(CCC)Cc1cn(-c2cc(NC(=S)NCC)ncn2)cn1 in terms of IC50 is > 50 µM

The reported value for C#CCN1CCN(Cc2cn(-c3cc(NC(=S)NCC)ncn3)cn2)CC1 in terms of IC50 is > 50 µM

The reported value for C#CCN(CC)CCc1cn(-c2cc(NC(=S)NCC)ncn2)cn1 in terms of IC50 is > 50 µM

The reported value for C#CCNCCCc1cn(-c2cc(NC(=S)NCC)ncn2)cn1 in terms of IC50 is > 50 µM

The reported value for C#CCN(CC)Cc1cn(-c2cc(NC(=S)NCC)ncn2)cn1 in terms of IC50 is > 50 µM

The reported value for C#CCN(Cc1ccccc1)Cc1cn(-c2cc(NC(=S)NCC)ncn2)cn1 in terms of IC50 is > 50 µM
